target: Platelet-activating factor acetylhydrolase IB subunit alpha1 (Homo sapiens); test: PAFAH1B3 enzyme inhibitors, primary screen, biochemical, fluorescence polarization, human (AID 492972); conditions: recombinant PAFAH1B3, FP-rhodamine probe, at 3.39 µM;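 note: 0% = enzyme with DMSO only and 100% = wells lacking PAFAH1B3 protein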
Hit rate of the full screen: of about 340,000 compounds, about 930 (0.27%) were called active.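 Rule for the calls: active = inhibition above the screen-wide average of all tested compounds plus 3 SD (cut at about 25% in these data); inactive = the rest.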 The full list was thinned out, with actives kept by preference.
Lab note: assign the record to one of 1 (active), -1 (inactive)

{"Smiles": "O=C1NC(=O)N(c2ccccc2)C(=O)/C1=C/c1ccc([N+](=O)[O-])s1", "Label class": 1}
{"Smiles": "COc1ccc(N2C(=O)/C(=C/c3ccco3)C(=O)NC2=S)cc1", "Label class": -1}
{"Smiles": "O=C1NC(=O)N(c2ccc(F)cc2)C(=O)/C1=C/c1ccc2c(c1)CCCN2Cc1ccccc1", "Label class": -1}
{"Smiles": "CCOC(=O)c1c(N)n(Cc2ccccc2)c2nc3ccccc3nc12", "Label class": 1}

Switching to the query record.
Data request: Lab log entry: O=C(c1cc2nc(-c3ccccc3)cc(-c3ccccc3)n2n1)N1CCC2(CC1)OCCO2 — outcome as called in the assay?
Data returned: -1
